// provenance: patent US20230265187A1

TARGET_UNDER_TEST: T1, his-tagged human TIGIT (Acro Biosystems #TIT-H52H3) (human, UniProt Q495A1 22-141)
T1 construct: Bought protein; also called His-tagged-TIGIT (human); not shown: his tag
T1 sequence (looked up): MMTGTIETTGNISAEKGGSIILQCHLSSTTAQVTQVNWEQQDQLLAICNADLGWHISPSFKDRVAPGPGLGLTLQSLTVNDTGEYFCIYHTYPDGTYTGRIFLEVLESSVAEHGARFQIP
MEASUREMENT_PROTOCOL: SPR (Carterra LSA), scFv-Fc captured, His-TIGIT analyte
REPORTED_PROPERTY: Kd (nM)
Your answer is read as nM, so omit the unit and give the number.

Below are worked cases with known answers.
43586p1.1.H8 (scFv, V domains shown) VH: EVQLLESGGGLVQPGGSLRLSCAASGFTFIDFWMSWVRQAPGKGLEWVSAISWIGDTYYYADSVKGRFTVSRDNSKNTVYLQMNSLRAEDTAVYYCAKHWTVYQYGMDVWGQGTTVTVSS VL: QSVLTQPPSASGTPGQRVIISCSGSTSDIETKYVSWYQQLPGTAPKLLIYGNHQRPSGVPDRFSGSKSGTSASLAISGLQSEDEADYYCTAWDNTLKSWVFGGGTKLTVL	0.292
43586p1.2.E1 (scFv, V domains shown) VH: EVQLLESGGGLVQPGGSLRLSCAASGFTFSDYLMTWVRQAPGKELEWVSTITWDGDRTYYADSVKGRFTISRDNSKNTLYLQMNSLRAEDTAVYYCAKHWTVFQYGMDVWGQGTTVTVSS VL: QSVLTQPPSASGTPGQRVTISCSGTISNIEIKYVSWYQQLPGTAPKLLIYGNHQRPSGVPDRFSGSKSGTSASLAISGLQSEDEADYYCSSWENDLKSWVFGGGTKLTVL	0.029

Next up:
For the binder 43586p1.2.C5 (scFv, V domains shown) VH: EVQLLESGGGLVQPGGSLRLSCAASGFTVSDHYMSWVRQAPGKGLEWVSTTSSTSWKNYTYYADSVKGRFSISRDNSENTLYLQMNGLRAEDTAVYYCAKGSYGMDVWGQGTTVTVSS VL: QSVLTQPPSASGTPGQRVTISCSGSNFNIGTKYLYWYQQLPGTAPKLLIYLDSQRPSGVPDRFSTSKPGTSASLAISGLQSEDEADYYCALWDDHLHGWVFGGGTKLTVL , what Kd is on record? 1.04
